Data provenance: the supplement of paper PMC8728848

# Measured target: Fuc(a1-2)[Gal(a1-3)]Gal(b1-3)GlcNAc(b1-6)GalNAc
# Test method notes: glycan array binding signal (z-score within array); higher = stronger binding
# Condition details: glycan notation: IUPAC condensed, linker removed
The full list was thinned out, with the strongest signals kept by preference.
Result type: glycan array binding signal (z-score)
Number only, no unit.

// known answers, use as guide
INSERT INTO results (binder, result_type, recorded_measurement) VALUES
  ('AidA (Burkholderia cenocepacia) (protein) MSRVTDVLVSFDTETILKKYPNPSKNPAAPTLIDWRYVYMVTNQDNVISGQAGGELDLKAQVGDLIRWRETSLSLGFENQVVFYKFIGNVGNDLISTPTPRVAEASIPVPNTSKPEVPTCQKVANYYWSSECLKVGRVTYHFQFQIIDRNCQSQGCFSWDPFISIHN', 'glycan array binding signal (z-score)', 0.594),
  ('Pwp7 (Candida glabrata) (protein) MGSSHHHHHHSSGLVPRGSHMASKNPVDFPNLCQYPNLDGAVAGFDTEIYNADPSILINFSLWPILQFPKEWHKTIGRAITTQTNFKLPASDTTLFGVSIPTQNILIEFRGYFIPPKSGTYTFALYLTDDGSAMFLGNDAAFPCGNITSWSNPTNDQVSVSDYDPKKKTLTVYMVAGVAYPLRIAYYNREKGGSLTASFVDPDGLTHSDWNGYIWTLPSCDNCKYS', 'glycan array binding signal (z-score)', 0.673),
  ('BIp1-His (Cryptococcus neoformans) (protein) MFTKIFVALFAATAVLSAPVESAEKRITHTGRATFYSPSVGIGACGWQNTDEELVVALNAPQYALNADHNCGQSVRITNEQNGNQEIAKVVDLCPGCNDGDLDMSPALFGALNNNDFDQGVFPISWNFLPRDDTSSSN', 'glycan array binding signal (z-score)', -0.487);

Note: attention shifts to another entry.
Need glycan array binding signal (z-score) of Pwp3 (Candida glabrata) (protein) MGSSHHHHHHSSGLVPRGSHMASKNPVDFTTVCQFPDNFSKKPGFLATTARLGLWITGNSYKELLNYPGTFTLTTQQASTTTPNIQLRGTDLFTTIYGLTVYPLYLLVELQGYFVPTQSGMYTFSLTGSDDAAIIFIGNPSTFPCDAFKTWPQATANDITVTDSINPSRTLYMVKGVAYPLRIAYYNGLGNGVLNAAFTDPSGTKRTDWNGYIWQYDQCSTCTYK , thanks.
4.02
